Target: FGFR1 (Homo sapiens (Human))
Sequence (P11362 22-822): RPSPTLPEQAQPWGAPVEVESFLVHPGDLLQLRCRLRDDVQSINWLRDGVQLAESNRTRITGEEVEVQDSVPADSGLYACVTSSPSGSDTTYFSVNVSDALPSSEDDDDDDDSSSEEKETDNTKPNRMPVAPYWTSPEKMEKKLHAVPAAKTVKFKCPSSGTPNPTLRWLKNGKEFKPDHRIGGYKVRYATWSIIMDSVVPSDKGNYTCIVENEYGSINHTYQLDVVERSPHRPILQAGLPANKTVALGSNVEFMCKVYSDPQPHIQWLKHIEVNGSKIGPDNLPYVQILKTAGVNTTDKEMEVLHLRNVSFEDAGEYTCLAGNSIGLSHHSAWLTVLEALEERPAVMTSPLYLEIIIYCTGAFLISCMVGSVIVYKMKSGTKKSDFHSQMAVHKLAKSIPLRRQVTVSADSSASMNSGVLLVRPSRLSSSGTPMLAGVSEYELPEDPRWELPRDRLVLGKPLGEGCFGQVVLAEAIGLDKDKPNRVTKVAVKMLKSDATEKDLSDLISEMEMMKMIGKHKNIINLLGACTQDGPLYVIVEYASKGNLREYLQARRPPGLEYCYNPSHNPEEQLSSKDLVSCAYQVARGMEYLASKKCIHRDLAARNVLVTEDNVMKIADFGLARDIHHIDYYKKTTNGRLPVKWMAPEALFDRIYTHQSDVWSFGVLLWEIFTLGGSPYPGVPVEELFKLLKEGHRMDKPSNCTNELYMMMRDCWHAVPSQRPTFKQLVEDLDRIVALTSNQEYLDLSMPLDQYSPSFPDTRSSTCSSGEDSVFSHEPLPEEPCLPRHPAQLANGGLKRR
Test: Kinase assay, binding constants (Kd), kinase-tagged T7 phage, qPCR
metric: Kd

>>> df
                        smilesrepresentation                    systemname  valuereported
 0  C[C@@H](Oc1ccc2[nH]nc(-c3ccc(N4CC5(COC5)C4)nc3)c2c1)c1c(Cl)cnnc1Cl  FGFR1 (Homo sapiens (Human))       > 300 nM
 1  CCN1CC[C@H](n2cc(-c3n[nH]c4ccc(O[C@H](C)c5c(Cl)cncc5Cl)cc34)cn2)C1  FGFR1 (Homo sapiens (Human))     1 to 20 nM
 2  Cc1ncc(Cl)c([C@@H](C)Oc2ccc3[nH]nc(-c4cnn(C5CCN(C)CC5)c4)c3c2)c1Cl  FGFR1 (Homo sapiens (Human))     1 to 20 nM
 3  C[C@@H](Oc1ccc2[nH]nc(-c3ccc(C4CCN(C(N)=O)CC4)nc3)c2c1)c1c(Cl)cncc1Cl  FGFR1 (Homo sapiens (Human))     1 to 20 nM
 4  C[C@@H](Oc1ccc2[nH]nc(-c3cnc(N4CCC5(CCCN5)CC4)nc3)c2c1)c1c(Cl)cncc1Cl  FGFR1 (Homo sapiens (Human))     1 to 20 nM
 5  C[C@@H](Oc1ccc2[nH]nc(-c3cnc(N4CCC5(CC4)CCS(=O)(=O)C5)nc3)c2c1)c1c(Cl)cncc1Cl  FGFR1 (Homo sapiens (Human))   20 to 100 nM
 6  C[C@@H](Oc1ccc2[nH]nc(-c3ccc(C4CCN(C(=O)N(C)C)CC4)nc3)c2c1)c1c(Cl)cncc1Cl  FGFR1 (Homo sapiens (Human))     1 to 20 nM
 7  C[C@@H](Oc1ccc2[nH]nc(-c3cnc(N4CC5(CCS(=O)(=O)C5)C4)c(C#N)c3)c2c1)c1c(Cl)cncc1Cl  FGFR1 (Homo sapiens (Human))   20 to 100 nM
 8  C[C@@H](Oc1ccc2[nH]nc(-c3ccc(N4CC5(CCCS(=O)(=O)C5)C4)nc3)c2c1)c1c(Cl)cncc1Cl  FGFR1 (Homo sapiens (Human))     1 to 20 nM
 9  COc1cc2[nH]nc(-c3cnc(N4CC5(C4)CN(S(C)(=O)=O)C5)c(CN(C)C)c3)c2cc1O[C@H](C)c1c(Cl)cncc1Cl  FGFR1 (Homo sapiens (Human))       > 300 nM
10  Cc1cnnc(C)c1[C@@H](C)Oc1ccc2[nH]nc(-c3cnc(N4CC[C@H](O)C4)c(C#N)c3)c2c1  FGFR1 (Homo sapiens (Human))  100 to 300 nM
11  Cc1ncc(Cl)c([C@@H](C)Oc2cc3c(-c4ccc(N5CC6(C5)CN(S(C)(=O)=O)C6)nc4)n[nH]c3cc2F)c1Cl  FGFR1 (Homo sapiens (Human))     1 to 20 nM
12  C[C@@H](Oc1ccc2[nH]nc(-c3cnn(C4CCS(=O)(=O)CC4)c3)c2c1)c1c(Cl)cncc1Cl  FGFR1 (Homo sapiens (Human))     1 to 20 nM
13  Cc1ncc(Cl)c([C@@H](C)Oc2ccc3[nH]nc(-c4ccc(N5CC6(COC6)C5)nc4)c3c2)c1Cl  FGFR1 (Homo sapiens (Human))   20 to 100 nM

----------
List of Kd values.
Molecular target: FGFR3 (Homo sapiens (Human))
Sequence (P22607 23-806): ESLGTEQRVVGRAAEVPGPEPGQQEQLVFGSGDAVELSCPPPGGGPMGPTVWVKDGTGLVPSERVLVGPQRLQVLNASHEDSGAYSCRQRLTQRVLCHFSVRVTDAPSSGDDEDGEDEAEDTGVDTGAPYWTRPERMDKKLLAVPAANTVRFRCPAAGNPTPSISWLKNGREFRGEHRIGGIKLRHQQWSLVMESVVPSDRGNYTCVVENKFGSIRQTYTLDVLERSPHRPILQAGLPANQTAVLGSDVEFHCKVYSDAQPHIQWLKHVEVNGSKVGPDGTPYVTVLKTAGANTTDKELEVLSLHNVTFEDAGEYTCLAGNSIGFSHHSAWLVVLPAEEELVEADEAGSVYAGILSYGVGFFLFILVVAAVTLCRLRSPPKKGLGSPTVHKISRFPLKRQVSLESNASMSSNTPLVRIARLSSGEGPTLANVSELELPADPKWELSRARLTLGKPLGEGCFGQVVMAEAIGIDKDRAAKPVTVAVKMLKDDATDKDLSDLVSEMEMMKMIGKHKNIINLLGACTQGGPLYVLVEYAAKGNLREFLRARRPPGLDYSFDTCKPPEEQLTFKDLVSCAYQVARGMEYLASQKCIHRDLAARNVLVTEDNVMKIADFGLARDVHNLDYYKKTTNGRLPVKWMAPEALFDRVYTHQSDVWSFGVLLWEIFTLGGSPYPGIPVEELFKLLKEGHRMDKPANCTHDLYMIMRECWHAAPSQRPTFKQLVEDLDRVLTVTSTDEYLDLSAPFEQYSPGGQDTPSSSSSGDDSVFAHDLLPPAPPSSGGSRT
Assay: Kinase assay, binding constants (Kd), kinase-tagged T7 phage, qPCR
metric: Kd

>>> df
                                    compound  metric  valuereported
 0  C[C@@H](Oc1ccc2[nH]nc(-c3ccc(N4CC5(CCNCC5)OC4=O)nc3)c2c1)c1c(Cl)cncc1Cl      Kd     1 to 20 nM
 1  C[C@@H](Oc1cc2c(-c3cnc(N4CC(C)(C)C4)c(C#N)c3)n[nH]c2cc1Cl)c1c(Cl)cncc1Cl      Kd     1 to 20 nM
 2  C[C@@H]1CCN1c1ncc(-c2n[nH]c3cc(Cl)c(O[C@H](C)c4c(Cl)cncc4Cl)cc23)cc1C#N      Kd  100 to 300 nM
 3  Cc1cnnc(C)c1[C@@H](C)Oc1ccc2[nH]nc(-c3cnc(N4CCCC4)c(C#N)c3)c2c1      Kd   20 to 100 nM
 4  C[C@@H](Oc1ccc2[nH]nc(-c3cnc(N4CCC5(CCC(=O)N5)CC4)c(F)c3)c2c1)c1c(Cl)cncc1Cl      Kd     1 to 20 nM
 5  COc1cc2[nH]nc(-c3cnc(N4CC5CC(C4)N5)c(C)c3)c2cc1O[C@H](C)c1c(C)cnnc1C      Kd     1 to 20 nM
 6  C[C@@H](Oc1ccc2[nH]nc(-c3ccc(N4CCN(C(=O)N5CCN(C)CC5)CC4)nc3)c2c1)c1c(Cl)cncc1Cl      Kd     1 to 20 nM
 7  C[C@@H](Oc1ccc2[nH]nc(-c3cnn(C4CCOCC4)c3)c2c1)c1c(Cl)cncc1Cl      Kd     1 to 20 nM
 8  C[C@@H](Oc1ccc2[nH]nc(-c3cnn(C4CCN(C(=O)CCN(C)C)CC4)c3)c2c1)c1c(Cl)cncc1Cl      Kd     1 to 20 nM
 9  CC(Oc1ccc2[nH]nc(-c3ccc(N4CC5(C4)CN(S(C)(=O)=O)C5)nc3)c2c1)c1c(Cl)ccnc1Cl (centres unmarked)      Kd     1 to 20 nM
10  C[C@@H](Oc1ccc2[nH]nc(-c3cnc(N4CCC(C(C)(C)O)CC4)c(C#N)c3)c2c1)c1c(Cl)cncc1Cl      Kd     1 to 20 nM
11  Cc1cnnc(C)c1[C@@H](C)Oc1ccc2[nH]nc(-c3cnc(N4CC[C@H](C(C)(C)O)C4)c(C#N)c3)c2c1      Kd   20 to 100 nM
12  Cc1cnnc(C)c1[C@@H](C)Oc1ccc2[nH]nc(-c3cnc(N4CC[C@@H](C(C)(C)O)C4)c(C#N)c3)c2c1      Kd   20 to 100 nM
13  COc1cc(-c2n[nH]c3ccc(O[C@H](C)c4c(C)cnnc4C)cc23)cnc1N1CCCC1      Kd       > 300 nM
